For each record, write down the corresponding Alkalinity.
conditions: alkalizer composition
Give the value in mL/g but do not write mL/g after it.

Prompt: Let me know recorded Alkalinity for "CN(C)C(C)(C)CO" , thanks.
Response: 2.38

Prompt: Specify reported Alkalinity for the compound shown: "CC(N)(CO)CO"
Response: 2.49

Prompt: // Input: NCCO [MEA, monoethanolamine, reference compound] . Output its Alkalinity only.
Response: 2.35

Prompt: Give reported Alkalinity value for "NC(CO)(CO)CO"
Response: 2.43

Prompt: # return recorded Alkalinity for entry "CN(C)CCCO"
Response: 2.32

Prompt: Indicate its recorded Alkalinity; the compound in question is "OCCNCCO"
Response: 2.57

Prompt: Give the reported Alkalinity for this compound. CC(C)(N)CO [AMP, aminomethyl propanol, reference compound]
Response: 2.32

Prompt: Determine from records and report Alkalinity for "NC(CO)CO"
Response: 2.55

Prompt: Quote Alkalinity reported for CN(C)CC(O)CO (centres unmarked) please.
Response: 2.57

Prompt: For NCC(O)CO (centres unmarked) , write its Alkalinity.
Response: 2.45

Prompt: Hello, please tell me recorded Alkalinity for this one: "CCC(N)(CO)CO"
Response: 2.40

###

conditions: alkalizer composition; 22° C., T-F spindle, 6 rpm
Classification by Viscosity (cP × 10^5) follows these ranges: lower range = under 3 cP × 10^5, middle range = from 3 cP × 10^5 up to 4 cP × 10^5, upper range = 4 cP × 10^5 and over

Prompt: Tag the class for CN(C)CCCO [DMAP, 3-Dimethyl-amino-1-propanol]
Response: lower range

Prompt: Which class holds CC(C)(N)CO [AMP, aminomethyl propanol, reference compound] ?
Response: lower range

Prompt: Lab note: which band did CN(C)C(C)(C)CO [DMAMP, 2-Dimethyl-amino-2-methyl-1-propanol] land in?
Response: lower range

Prompt: Which class is correct for the following compound? NCC(O)CO (centres unmarked) [Isoserinol, 3-Amino-1,2-propanediol]
Response: middle range

Prompt: Exam item: assign NC(CO)CO [Serinol, 2-Amino-1,3-propanediol] to the correct category.
Response: upper range

Prompt: # bin label for CCC(N)(CO)CO [AEPD, 2-Amino-2-ethyl-1,3-propanediol]
Response: upper range

Prompt: Please indicate the class for CC(N)(CO)CO [AMPD, 2-Amino-2-methyl-1,3-propanediol] based on its Viscosity (cP × 10^5).
Response: middle range

Prompt: # classify by Viscosity (cP × 10^5) band: CN(C)CC(O)CO (centres unmarked) [DMAPD, 3-(dimethylamino)-1,2-propanediol]
Response: middle range

Prompt: Which of the defined bands does the recorded Viscosity (cP × 10^5) of OCCNCCO [DEA, Diethanolamine] sit within?
Response: upper range

Prompt: GET /class?item= NC(CO)(CO)CO [Tris, Tromethamine]
Response: upper range

###

This section lists ΔT (change in denaturation temperature) TVirgin-TAlkalizer readings for keratin in hair.
Enter the number alone.

Prompt: Provide measured ΔT (change in denaturation temperature) TVirgin-TAlkalizer value, entry: "CCC(N)(CO)CO"
Response: 4.17

Prompt: State its ΔT (change in denaturation temperature) TVirgin-TAlkalizer: "NC(CO)(CO)CO"
Response: 1.42

Prompt: State, in one line, measured ΔT (change in denaturation temperature) TVirgin-TAlkalizer of NCC(O)CO (centres unmarked)
Response: 5.83

Prompt: Read off the recorded ΔT (change in denaturation temperature) TVirgin-TAlkalizer for "CC(N)(CO)CO"
Response: 4.54

Prompt: Output measured ΔT (change in denaturation temperature) TVirgin-TAlkalizer for this item: "OCCNCCO"
Response: 1.79

Prompt: Return value of ΔT (change in denaturation temperature) TVirgin-TAlkalizer for input NCCO [MEA, monoethanolamine, reference compound] , no commentary.
Response: 8.46

Prompt: Specify ΔT (change in denaturation temperature) TVirgin-TAlkalizer for [Na+].[OH-] [NaOH, reference compound] and stop.
Response: 14.29

Prompt: Note ΔT (change in denaturation temperature) TVirgin-TAlkalizer for the compound shown: CC(C)(N)CO [AMP, aminomethyl propanol, reference compound]
Response: 8.59

Prompt: Please supply the value of reported ΔT (change in denaturation temperature) TVirgin-TAlkalizer for the item CN(C)CC(O)CO (centres unmarked)
Response: 0.96

Prompt: For the compound "NC(CO)CO" , report ΔT (change in denaturation temperature) TVirgin-TAlkalizer.
Response: 3.19

Prompt: Indicate the recorded ΔT (change in denaturation temperature) TVirgin-TAlkalizer value for this compound: "CN(C)C(C)(C)CO"
Response: 2.58
